assay-summary: qHTS for Inflammasome Signaling Inhibitors: IL-1-beta AlphaLISA screen against the NCATS CANVASS Library (AID 1347379);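 note: human THP-1 cells primed with LPS then triggered with ATP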
study-conditions: THP-1 LPS/ATP, IL-1B AlphaLISA secretion, 16 h; series mostly up to 57.5 µM
Records with an inconclusive call do not appear. Active and inactive are the calls of the source. Calls come from the whole dose curve; as a rule, active = well fitted inhibition curve with a large enough effect; inconclusive = small, poorly fitted or top-dose-only effect; inactive = flat fitted curve, though single readings scatter.
Just give me one of these, please: 1.0 (active), 0.0 (inactive)

Reference set (3 entries):
molecule=C=C[C@]1(C)CC[C@@H]([C@H](C)C(=O)/C=C/C(C)(C)O)O1 group=0.0
molecule=C/C(=C\[C@H](C)C(=O)CCCC1CC(=O)NC(=O)C1)[C@@H]1OC(=O)/C=C/CC/C=C/[C@H](O)[C@@H](O)[C@@H]1C group=1.0
molecule="CC(C)=CCCC(C)(O)[C@H]1CC=C(C)C(O)C1 (some centres undefined)" group=0.0

Okay, now this molecule:
Recorded test call requested for C/C=C(/C)c1c(Cl)c(OC)c(C)c2c1Oc1c(Cl)c(O)c(Cl)c(C)c1C(=O)O2
0.0
